SYSTEM TESTED: human plasma kallikrein (Homo sapiens, UniProt P03952)
Construct: purchased Enzyme Research Laboratories HPKa 1303
Sequence (P03952 20-390 limits assumed): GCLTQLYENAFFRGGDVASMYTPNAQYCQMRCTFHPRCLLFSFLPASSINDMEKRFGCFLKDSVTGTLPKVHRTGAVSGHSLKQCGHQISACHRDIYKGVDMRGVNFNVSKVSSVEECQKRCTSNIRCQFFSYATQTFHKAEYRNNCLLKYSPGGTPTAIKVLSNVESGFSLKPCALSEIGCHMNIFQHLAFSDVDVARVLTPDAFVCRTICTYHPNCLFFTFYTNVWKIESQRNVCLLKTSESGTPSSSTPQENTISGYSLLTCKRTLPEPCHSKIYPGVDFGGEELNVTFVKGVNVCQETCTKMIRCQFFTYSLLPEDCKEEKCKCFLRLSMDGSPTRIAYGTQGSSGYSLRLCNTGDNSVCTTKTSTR
Sequence (P03952 391-638 limits assumed): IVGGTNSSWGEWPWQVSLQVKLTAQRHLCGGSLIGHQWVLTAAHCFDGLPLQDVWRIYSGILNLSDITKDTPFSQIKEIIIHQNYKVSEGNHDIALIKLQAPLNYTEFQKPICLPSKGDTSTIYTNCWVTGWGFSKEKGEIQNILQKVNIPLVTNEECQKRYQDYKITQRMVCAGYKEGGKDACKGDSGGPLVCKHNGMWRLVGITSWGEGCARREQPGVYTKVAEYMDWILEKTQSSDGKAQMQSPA
ASSAY EXPLANATION: Enzyme inhibition assay (fluorogenic substrate H-Pro-Phe-Arg-AMC)
Type: biochemical
CONDITIONS USED: Kallikrein inhibitory activity; 1 nM activated human kallikrein, 500 μM H-Pro-Phe-Arg-AMC, 1 hour room temperature; read-out: Avg. IC50
pIC50: −log10 of the molar value. Numbered stars: 1 amine (or outer) side, 2 acyl side, 3 side chain; on linkers, the order of the positions; unused ones are H or OH. Bridge positions count the residues as written; N and C are the ends. Square brackets hold non-standard residues; d marks the D form. Peptide text beside a SMILES is read from it. mXylylene = c1cc(C[*:1])cc(C[*:2])c1; Pen = CC(C)(S)[C@H](N)C(=O)O; Nva = CCC[C@H](N)C(=O)O
READOUT TYPE: pIC50

- MOLECULE: "CCC[C@H](N)C(=O)N[C@@H]1C(=O)N[C@@H](CCC(=O)O)C(=O)N[C@@H](CO)C(=O)N[C@@H]([C@@H](C)CC)C(=O)N[C@H](C(=O)N[C@@H](CCCNC(=N)N)C(=O)N[C@H](C(N)=O)C(C)C)C(C)(C)SCc2cccc(c2)CSC1(C)C [Compound R2034, [mXylyl(2,6)]Nvl-Pen-ESI-Pen-RV-NH2] (H-[Nva][Pen]ESI[Pen]RV-NH2; linker 2-6 via mXylylene)"
  SYSTEM TESTED: "human plasma kallikrein (Homo sapiens, UniProt P03952)"
  pIC50: "< 4.00"

Moving on to the next molecule.
Give its pIC50 value. Item: CC(C)(C)[C@H](NC(=O)[C@H](CCCNC(=N)N)NC(=O)[C@@H]1C/C=C/c2cccc(c2)OCCCC(=O)N2CCC[C@H]2C(=O)N[C@@H](C2CCCCC2)C(=O)N1)C(N)=O [Compound R2262] < 4.00
